Where a name gives a salt, the structure may show the parent alone.
assayReadout: melting point (°C)

COc1ccc(C(C)(O)Cn2cc[nH]c2=O)cc1OC1CCCC1 (racemic)    136.2

(P) CCOC(Cn1cc[nH]c1=O)c1ccc(OC)c(OC)c1 (racemic)
(Q) COc1ccc(C(N)CN2CCN(Cc3ccccc3)C2=O)cc1OC (racemic) (as salt: hydrochloric acid salt)
I'm curious whether P or Q has the smaller melting point number. Which is it? Field: selected label. Fill in the label of the entry you choose. P
